// values below are reported CC50 at 3 days
- Run Description: Cell Titer-fluor cell activity assay in HCV-1b replicon cells (CC50)
- Type: cell-based

Compound: COC(=O)N[C@H](C(=O)N1CCC[C@H]1c1ncc(-c2ccc(-c3ccc(-c4cnc([C@H]5CCCC[C@@H]5C(=O)NCc5cncc(C)c5)[nH]4)cc3)cc2)[nH]1)C(C)C
CC50 at 3 days: > 5 nM
//
Compound: COC(=O)NC(C(=O)N1CCC[C@H]1c1ncc(-c2ccc(-c3ccc(-c4[nH]c(C5CCCN5C(=O)[C@@H](NC(=O)OC)C(C)C)c5c4CCC5)cc3)cc2)[nH]1)C1CCOC(C)C1 (some centres unmarked)
CC50 at 3 days: > 100 nM
//
Compound: COC(=O)N[C@H](C(=O)N1CCC[C@H]1c1ncc(-c2ccc(-c3ccc(-c4cnc(C5C6CCC(C6)[C@@H]5C(=O)NCc5cccnc5)[nH]4)cc3)cc2)[nH]1)C(C)C (some centres unmarked)
CC50 at 3 days: > 1 nM
//
Compound: COC[C@H](NC(=O)OC)C(=O)N1CCC[C@H]1c1ncc(-c2ccc(-c3ccc(-c4ccc([C@@H]5CCCN5C(=O)[C@@H](NC(=O)OC)C(C)C)[nH]4)cc3)cc2)[nH]1
CC50 at 3 days: > 1 nM
//
Compound: COC(=O)N[C@H](C(=O)N1CCC[C@H]1c1ncc(-c2ccc(-c3ccc(-c4ccc(C5CCCN5C(=O)[C@@H](NC(=O)OC)C5CCOCC5)[nH]4)cc3)cc2)[nH]1)C(C)C (some centres unmarked)
CC50 at 3 days: > 10 nM

The measurements presented in this section are drawn from patent US10160771B2.
